B1: EHMT1 (parent)
chain: EEINKNISDFGRQQLLPPFPSLHQ

- Variants of: B1
- procedure.details: protein stability index of a GFP-peptide fusion (GPS, HEK-293T) (PSI 1-6); higher = more stable;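 also: lentivirally expressed fusions sorted by FACS into six bins by GFP to DsRed ratio, PSI derived from sequencing read proportions per bin multiplied by bin number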
- test.parameters: c terminus: a fixed tail appended
measured.property: protein stability index
Lab note: record just the number, no unit beside it.

Some variants with known protein stability index results, for comparison:
- construct.sequence: "EEINKCISDFGRQQLLPPFPSLHQ"
  measured.property: "protein stability index"
  test.value: 2.44
- construct.sequence: "EEINKNISDFGRMQLLPPFPSLHQ"
  measured.property: "protein stability index"
  test.value: 2.94
- construct.sequence: "EEFNKNISDFGRQQLLPPFPSLHQ"
  measured.property: "protein stability index"
  test.value: 2.91

In plain terms, `EEINKNISTFGRQQLLPPFPSLHQ` has a documented protein stability index of 2.61

Noted for `EEINKNISDFGRQQLLPPPPSLHQ` : its protein stability index reads 4.41

The value of protein stability index measured for the variant `EEINKNINDFGRQQLLPPFPSLHQ` turned out to be 2.46

Measured protein stability index, `EEINKNISDFGRQQLLRPFPSLHQ` : 2.94

Documented protein stability index of `EEINKNISDFGRQQLLPPTPSLHQ` : 4.04

Lab note: measured protein stability index of `EEINKNISDFGRQQLLPPFPILHQ` was 2.62

For record `EEINKNISDFGRQQLLAPFPSLHQ` the listed protein stability index is 2.79

Entry under test: `EGINKNISDFGRQQLLPPFPSLHQ` . Its protein stability index was 2.51
